# GI50 values compiled below
# Test system: SW-620
# test.description: Growth inhibition of human SW620 cells by sulforhodamine B assay
# Assay type: functional
# condition.details: read-out: pGI50 (converted)
Hi! Could you send only the number? It should be in µM, unit omitted.

Completed entries (count: 4):
molecule	GI50, µM
C/C=C(/C)C(=O)O[C@@H]1CC(C)(C)C[C@H]2C3=CC[C@@H]4[C@@]5(C)CCC(=O)C(C)(C)[C@@H]5CC[C@@]4(C)[C@]3(C)CC[C@@]12C(=O)O [LANTADENE A]	4.47
CC1(C)C[C@@H](O)[C@]2(C(=O)O)CC[C@]3(C)C(=CC[C@@H]4[C@@]5(C)C/C(=C\C=C\c6ccccc6)C(=O)C(C)(C)[C@@H]5CC[C@]43C)[C@@H]2C1	3.39
C/C=C(/C)C(=O)O[C@@H]1CC(C)(C)C[C@H]2C3=CC[C@@H]4[C@@]5(C)CC[C@H](O)C(C)(C)[C@@H]5CC[C@@]4(C)[C@]3(C)CC[C@@]12C(=O)O [Reduced Lantadene A]	2.29
CC(C)=CC(=O)O[C@@H]1CC(C)(C)C[C@H]2C3=CC[C@@H]4[C@@]5(C)CCC(=O)C(C)(C)[C@@H]5CC[C@@]4(C)[C@]3(C)CC[C@@]12C(=O)O	3.98

// switching to the query molecule
Give the reported GI50 for this molecule. CC(C)=CC(=O)O[C@@H]1CC(C)(C)C[C@H]2C3=CC[C@@H]4[C@@]5(C)CC[C@H](O)C(C)(C)[C@@H]5CC[C@@]4(C)[C@]3(C)CC[C@@]12C(=O)O [Reduced Lantadene B]
5.75

====

# System: COLO 205
# test.description: Growth inhibition of human COLO205 cells assessed as cell growth at 10^-4 M by sulforhodamine B assay
# Format: functional
# condition.details: read-out: Activity
growth at 100 µM for assorted molecules
Your answer should be a plain number; it is taken to be in %.

Some molecules with known growth at 100 µM results, for comparison:
molecule	system	value.observed
CC(C)=CC(=O)O[C@@H]1CC(C)(C)C[C@H]2C3=CC[C@@H]4[C@@]5(C)CC[C@H](O)C(C)(C)[C@@H]5CC[C@@]4(C)[C@]3(C)CC[C@@]12C(=O)O [Reduced Lantadene B]	COLO 205	-52
CC1(C)C[C@@H](O)[C@]2(C(=O)O)CC[C@]3(C)C(=CC[C@@H]4[C@@]5(C)C/C(=C\C=C\c6ccccc6)C(=O)C(C)(C)[C@@H]5CC[C@]43C)[C@@H]2C1	COLO 205	-61
C/C=C(/C)C(=O)O[C@@H]1CC(C)(C)C[C@H]2C3=CC[C@@H]4[C@@]5(C)CCC(=O)C(C)(C)[C@@H]5CC[C@@]4(C)[C@]3(C)CC[C@@]12C(=O)O [LANTADENE A]	COLO 205	-51
CC(C)=CC(=O)O[C@@H]1CC(C)(C)C[C@H]2C3=CC[C@@H]4[C@@]5(C)CCC(=O)C(C)(C)[C@@H]5CC[C@@]4(C)[C@]3(C)CC[C@@]12C(=O)O	COLO 205	-76

// switching to the query molecule
Report measured growth at 100 µM; entry is C/C=C(/C)C(=O)O[C@@H]1CC(C)(C)C[C@H]2C3=CC[C@@H]4[C@@]5(C)CC[C@H](O)C(C)(C)[C@@H]5CC[C@@]4(C)[C@]3(C)CC[C@@]12C(=O)O [Reduced Lantadene A]
3

====

# Test system: OVCAR-3
# test.description: Growth inhibition of human OVCAR3 cells by sulforhodamine B assay
# Type: functional
# condition.details: read-out: TGI
Listed here are molecules together with their documented TGI.
Number in µM, nothing else.

Would you please look over these solved cases?
molecule	TGI [µM]
C/C=C(/C)C(=O)O[C@@H]1CC(C)(C)C[C@H]2C3=CC[C@@H]4[C@@]5(C)CC[C@H](O)C(C)(C)[C@@H]5CC[C@@]4(C)[C@]3(C)CC[C@@]12C(=O)O [Reduced Lantadene A]	3.61
CC(C)=CC(=O)O[C@@H]1CC(C)(C)C[C@H]2C3=CC[C@@H]4[C@@]5(C)CC[C@H](O)C(C)(C)[C@@H]5CC[C@@]4(C)[C@]3(C)CC[C@@]12C(=O)O [Reduced Lantadene B]	22.1
CC(C)=CC(=O)O[C@@H]1CC(C)(C)C[C@H]2C3=CC[C@@H]4[C@@]5(C)CCC(=O)C(C)(C)[C@@H]5CC[C@@]4(C)[C@]3(C)CC[C@@]12C(=O)O	19

Kindly review the next molecule as well.
Kindly indicate its recorded TGI. Item: `CC1(C)C[C@@H](O)[C@]2(C(=O)O)CC[C@]3(C)C(=CC[C@@H]4[C@@]5(C)C/C(=C\C=C\c6ccccc6)C(=O)C(C)(C)[C@@H]5CC[C@]43C)[C@@H]2C1`
4.81

====

# System: SNB-19
# test.description: Growth inhibition of human SNB19 cells by sulforhodamine B assay
# Assay type: functional
# condition.details: read-out: GI50
GI50 values for the molecules below.
Kindly report the value followed by its unit.

Example molecules with recorded GI50:
smiles.repr	value.observed
CC(C)=CC(=O)O[C@@H]1CC(C)(C)C[C@H]2C3=CC[C@@H]4[C@@]5(C)CC[C@H](O)C(C)(C)[C@@H]5CC[C@@]4(C)[C@]3(C)CC[C@@]12C(=O)O	4.93 µM
CC(C)=CC(=O)O[C@@H]1CC(C)(C)C[C@H]2C3=CC[C@@H]4[C@@]5(C)CCC(=O)C(C)(C)[C@@H]5CC[C@@]4(C)[C@]3(C)CC[C@@]12C(=O)O	4.25 µM

Give measured GI50 for `CC1(C)C[C@@H](O)[C@]2(C(=O)O)CC[C@]3(C)C(=CC[C@@H]4[C@@]5(C)C/C(=C\C=C\c6ccccc6)C(=O)C(C)(C)[C@@H]5CC[C@]43C)[C@@H]2C1` (SNB-19).
4.03 µM

Lab note: SNB-19 assay, enter GI50 for `C/C=C(/C)C(=O)O[C@@H]1CC(C)(C)C[C@H]2C3=CC[C@@H]4[C@@]5(C)CCC(=O)C(C)(C)[C@@H]5CC[C@@]4(C)[C@]3(C)CC[C@@]12C(=O)O` here
4.67 µM

Give reported GI50 for `C/C=C(/C)C(=O)O[C@@H]1CC(C)(C)C[C@H]2C3=CC[C@@H]4[C@@]5(C)CC[C@H](O)C(C)(C)[C@@H]5CC[C@@]4(C)[C@]3(C)CC[C@@]12C(=O)O` (SNB-19)
1.65 µM

====

# System: MCF7
# test.description: Growth inhibition of human MCF7 cells assessed as cell growth at 10^-6 M by sulforhodamine B assay
# Format: functional
# condition.details: read-out: Activity
measurement.kind: growth at 1 µM

Examples from the recorded data:
smiles.repr	growth at 1 µM
C/C=C(/C)C(=O)O[C@@H]1CC(C)(C)C[C@H]2C3=CC[C@@H]4[C@@]5(C)CCC(=O)C(C)(C)[C@@H]5CC[C@@]4(C)[C@]3(C)CC[C@@]12C(=O)O	87%
CC1(C)C[C@@H](O)[C@]2(C(=O)O)CC[C@]3(C)C(=CC[C@@H]4[C@@]5(C)C/C(=C\C=C\c6ccccc6)C(=O)C(C)(C)[C@@H]5CC[C@]43C)[C@@H]2C1	95%

Note growth at 1 µM for the compound shown: `CC(C)=CC(=O)O[C@@H]1CC(C)(C)C[C@H]2C3=CC[C@@H]4[C@@]5(C)CC[C@H](O)C(C)(C)[C@@H]5CC[C@@]4(C)[C@]3(C)CC[C@@]12C(=O)O`
88%

Return growth at 1 µM for the following compound: `CC(C)=CC(=O)O[C@@H]1CC(C)(C)C[C@H]2C3=CC[C@@H]4[C@@]5(C)CCC(=O)C(C)(C)[C@@H]5CC[C@@]4(C)[C@]3(C)CC[C@@]12C(=O)O`
84%

Quick one: give measured growth at 1 µM for `C/C=C(/C)C(=O)O[C@@H]1CC(C)(C)C[C@H]2C3=CC[C@@H]4[C@@]5(C)CC[C@H](O)C(C)(C)[C@@H]5CC[C@@]4(C)[C@]3(C)CC[C@@]12C(=O)O`
88%

====

# Test system: LOX IMVI
# test.description: Growth inhibition of human LOXIMVI cells assessed as cell growth at 10^-6 M by sulforhodamine B assay
# Type: functional
# condition.details: read-out: Activity
measurement.kind: growth at 1 µM (%)
Could you give me the number in %? Just the number is fine.

Some molecules with recorded growth at 1 µM:
smiles.repr	measurement.kind	unit.symbol	value.observed
CC1(C)C[C@@H](O)[C@]2(C(=O)O)CC[C@]3(C)C(=CC[C@@H]4[C@@]5(C)C/C(=C\C=C\c6ccccc6)C(=O)C(C)(C)[C@@H]5CC[C@]43C)[C@@H]2C1	growth at 1 µM	%	101
CC(C)=CC(=O)O[C@@H]1CC(C)(C)C[C@H]2C3=CC[C@@H]4[C@@]5(C)CCC(=O)C(C)(C)[C@@H]5CC[C@@]4(C)[C@]3(C)CC[C@@]12C(=O)O	growth at 1 µM	%	87
C/C=C(/C)C(=O)O[C@@H]1CC(C)(C)C[C@H]2C3=CC[C@@H]4[C@@]5(C)CCC(=O)C(C)(C)[C@@H]5CC[C@@]4(C)[C@]3(C)CC[C@@]12C(=O)O	growth at 1 µM	%	92
CC(C)=CC(=O)O[C@@H]1CC(C)(C)C[C@H]2C3=CC[C@@H]4[C@@]5(C)CC[C@H](O)C(C)(C)[C@@H]5CC[C@@]4(C)[C@]3(C)CC[C@@]12C(=O)O	growth at 1 µM	%	88

# evaluate next
Give the value of growth at 1 µM reported for the following: `C/C=C(/C)C(=O)O[C@@H]1CC(C)(C)C[C@H]2C3=CC[C@@H]4[C@@]5(C)CC[C@H](O)C(C)(C)[C@@H]5CC[C@@]4(C)[C@]3(C)CC[C@@]12C(=O)O`
97
